// endpoint pIC50 / system Acetylcholinesterase (Torpedo californica, UniProt P04058)
The scale used: pIC50 is minus the common logarithm of the concentration in molar units.

Here are 2 molecules together with their reported answers.
> print(dat)
                                   molecule  observation.type  measurement
1  CCc1ccccc1NC(=O)Oc1ccc2c(c1)[C@]1(C)CC[N+](C)([O-])[C@@H]1N2C (some centres undefined)             pIC50         5.29
2  Cc1ccc(NC(=O)Oc2ccc3c(c2)[C@]2(C)CC[N+](C)([O-])[C@@H]2N3C)cc1 (some centres undefined)             pIC50         5.12

Query string: Suppose we examine the molecule Cc1cc(C)cc(NC(=O)Oc2ccc3c(c2)[C@]2(C)CC[N+](C)([O-])[C@@H]2N3C)c1 (some centres undefined) ; what pIC50 value has been reported?
Result string: 5.07

Query string: Please answer likewise for CN1c2ccc(OC(=O)Nc3ccccc3)cc2[C@]2(C)CC[N+](C)([O-])[C@H]12 (some centres undefined)
Result string: 5.32
